# target-under-test: T1, RAPGEF6, Q8TEU7
# T1 sequence (Q8TEU7 525-625, limits assumed, looked up): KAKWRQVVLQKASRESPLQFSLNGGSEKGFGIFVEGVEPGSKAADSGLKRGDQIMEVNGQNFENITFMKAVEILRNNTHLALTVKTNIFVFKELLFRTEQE
# experimental-details: holdup assay
# Set-up: key: below the threshold = too weak to quantify, mostly under pKd 3.1 to 4
# measurement-setup: plain residues with an end cap or a label only (N-terminal biotin on a linker: ado-ado)
measured-endpoint: pKd

>>> experimental_result("ATKDKKITTV [EXOC4, Q96A65]")
"below the threshold"
>>> experimental_result("LPPPESESKV [KCNJ9, Q92806]")
"below the threshold"
>>> experimental_result("MQILSKPEFI [NPSR1, Q6W5P4]")
"below the threshold"
>>> experimental_result("NNMAFETTHF [SLC5A12, Q1EHB4]")
"below the threshold"
>>> experimental_result("PAALPESTHM [SLC9A3, P48764]")
"below the threshold"
>>> experimental_result("IGHEDLETAV [DGKI, O75912]")
"below the threshold"
>>> experimental_result("NTALVESEDL [PALLS, Q8WX93;Q8WX93-1]")
"below the threshold"
>>> experimental_result("QKASRNESTF [POLR1D, P0DPB6]")
"below the threshold"
>>> experimental_result("AKADAQESRL [PLCB2, Q00722]")
"below the threshold"
